Source listed as patent US8791108B2.

# Test system: recombinant NL-Rluc virus
# Protocol summary: Inhibition of HIV replication (NL-RLuc luciferase reporter virus, MT-2 cells)
# Assay type: cell-based
# Protocol conditions: Human immunodeficiency virus 1, MT2, 120 h, read-out: Activity
pEC50: −log10 of the molar value.
Measure: pEC50

Give me pEC50 for each of these molecules, listed below.
1. Cc1nc2cc(C(=O)N3CCN(Cc4ccc5c(c4)OCO5)CC3)nn2c(-c2cc(F)c3c(c2C)CCCO3)c1[C@H](OC(C)(C)C)C(=O)O [Example 92]
2. Cc1nc2cc(C(=O)NCc3cc(Cl)cc(Cl)c3)nn2c(-c2cc(F)c3c(c2C)CCCO3)c1[C@H](OC(C)(C)C)C(=O)O [Example 118]
3. CCCCOc1cc(F)ccc1CNC(=O)c1cc2nc(C)c([C@H](OC(C)(C)C)C(=O)O)c(-c3ccc4c(c3Cl)NCCO4)n2n1 [Example 143]
4. Cc1nc2cc(C(=O)NCc3ccc(OC(F)(F)F)cc3)nn2c(-c2cc(F)c3c(c2C)CCCO3)c1[C@H](OC(C)(C)C)C(=O)O [Example 44]
5. Cc1nc2cc(C(=O)NCc3cccc(N4CCOCC4)c3)nn2c(-c2cc(F)c3c(c2C)CCCO3)c1[C@H](OC(C)(C)C)C(=O)O [Example 100]
6. Cc1nc2cc(C(=O)NCCC(C)(C)C)nn2c(/C=C/CC(C)C)c1[C@H](OC(C)(C)C)C(=O)O [Example 150]

[A]
1. 6.00 to 7.00
2. > 7.00
3. > 7.00
4. > 7.00
5. 6.00 to 7.00
6. < 6.00

For the 3 molecules below, give their pEC50 values.
1. Cc1nc2cc(C(=O)N(C)CCC(C)C)nn2c(-c2cc(F)c3c(c2C)CCCO3)c1[C@H](OC(C)(C)C)C(=O)O [Example 98]
2. Cc1nc2cc(C(=O)NCc3ccc(F)cc3-n3ncnc3C)nn2c(-c2cc(F)c3c(c2C)CCCO3)c1C(OC(C)(C)C)C(=O)O (stereo in doubt) [Example 9]
3. Cc1cccc(CN(C)C(=O)c2cc3nc(C)c([C@H](OC(C)(C)C)C(=O)O)c(-c4cc(F)c5c(c4C)CCCO5)n3n2)c1 [Example 20]

[A]
> 7.00
6.00 to 7.00
> 7.00

Respectfully, I request pEC50 for each entry included below.
1. Cc1nc2cc(C(=O)NCc3ccc(Cl)c(Cl)c3)nn2c(-c2cc(F)c3c(c2C)CCCO3)c1[C@H](OC(C)(C)C)C(=O)O [Example 109]
2. Cc1nc2cc(C(=O)NS(=O)(=O)Cc3ccccc3)nn2c(-c2cc(F)c3c(c2C)CCCO3)c1[C@H](OC(C)(C)C)C(=O)O [Example 14]
3. CCCCNC(=O)c1cc2nc(C)c([C@H](OC(C)(C)C)C(=O)O)c(-c3cc(F)c4c(c3C)CCCO4)n2n1 [Example 114]

[A]
1: > 7.00; 2: < 6.00; 3: > 7.00
